Molecular target: human CB2 receptors (Homo sapiens, UniProt P34972)
Construct: expressed in transfected cells
Sequence (P34972 whole entry): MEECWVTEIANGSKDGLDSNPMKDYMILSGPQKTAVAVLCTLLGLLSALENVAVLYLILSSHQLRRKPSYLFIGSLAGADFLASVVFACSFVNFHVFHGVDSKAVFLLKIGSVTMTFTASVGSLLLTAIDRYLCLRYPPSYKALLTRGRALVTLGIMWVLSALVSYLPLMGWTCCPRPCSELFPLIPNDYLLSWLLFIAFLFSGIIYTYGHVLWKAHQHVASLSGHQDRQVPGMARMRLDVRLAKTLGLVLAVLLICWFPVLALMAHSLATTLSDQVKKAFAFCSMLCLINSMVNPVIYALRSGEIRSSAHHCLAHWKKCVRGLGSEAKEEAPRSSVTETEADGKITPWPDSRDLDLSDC
Experiment: [3H]CP-55,940 radioligand competition binding assay, CB2
Quantity: SI: selectivity index for CB2, calculated as Ki(CB1)/Ki(CB2) ratio

Report SI: selectivity index for CB2, calculated as Ki(CB1)/Ki(CB2) ratio for CCN(CC)c1ccc(CN(Cc2cc(OC)c(OC)c(OC)c2)S(=O)(=O)c2ccc(OC(F)(F)F)cc2)cc1 [Compound 13] please. 2

Report SI: selectivity index for CB2, calculated as Ki(CB1)/Ki(CB2) ratio for CCN(CC)c1ccc(CN(Cc2cccnc2)S(=O)(=O)c2ccc3ccccc3c2)cc1 [Compound 24] please. 14

Report SI: selectivity index for CB2, calculated as Ki(CB1)/Ki(CB2) ratio for CCN(CC)c1ccc(CN(Cc2cc(OC)c(OC)c(OC)c2)S(=O)(=O)/C=C/c2ccccc2)cc1 [Compound 15] please. 145

Report SI: selectivity index for CB2, calculated as Ki(CB1)/Ki(CB2) ratio for CCN(CC)c1ccc(CN(Cc2cc(OC)c(OC)c(OC)c2)S(=O)(=O)c2cccs2)cc1 [Compound 16] please. 32

Report SI: selectivity index for CB2, calculated as Ki(CB1)/Ki(CB2) ratio for CCN(CC)c1ccc(CN(Cc2cc(OC)c(OC)c(OC)c2)S(=O)(=O)c2ccc(OC)cc2)cc1 [Compound 4] please. 50

Report SI: selectivity index for CB2, calculated as Ki(CB1)/Ki(CB2) ratio for CCN(CC)c1ccc(CN(Cc2cc(OC)c(OC)c(OC)c2)S(=O)(=O)c2ccccc2)cc1 [Compound 7] please. 44

Report SI: selectivity index for CB2, calculated as Ki(CB1)/Ki(CB2) ratio for CCCCCN(Cc1ccc(N(CC)CC)cc1)C(=O)c1cnc2ccccc2n1 [Compound 39] please. 1

Report SI: selectivity index for CB2, calculated as Ki(CB1)/Ki(CB2) ratio for CCN(CC)c1ccc(CN(Cc2ccc3c(c2)OCO3)S(=O)(=O)c2ccc(C=O)cc2)cc1 [Compound 30] please. 1

Report SI: selectivity index for CB2, calculated as Ki(CB1)/Ki(CB2) ratio for CCN(CC)c1ccc(CN(Cc2cc(OC)c(OC)c(OC)c2)S(=O)(=O)c2ccccc2C)cc1 [Compound 14] please. 2

Report SI: selectivity index for CB2, calculated as Ki(CB1)/Ki(CB2) ratio for CCN(CC)c1ccc(CN(Cc2ccc3c(c2)OCO3)S(=O)(=O)/C=C/c2ccccc2)cc1 [Compound 29] please. 3

Report SI: selectivity index for CB2, calculated as Ki(CB1)/Ki(CB2) ratio for CCN(CC)c1ccc(CN(Cc2ccc3c(c2)OCO3)C(=O)c2cccs2)cc1 [Compound 32] please. 2

Report SI: selectivity index for CB2, calculated as Ki(CB1)/Ki(CB2) ratio for CCN(CC)c1ccc(CN(Cc2cc(OC)c(OC)c(OC)c2)C(=O)c2cnc3ccccc3n2)cc1 [Compound 12] please. 52

Report SI: selectivity index for CB2, calculated as Ki(CB1)/Ki(CB2) ratio for CCN(CC)c1ccc(CN(Cc2cc(OC)c(OC)c(OC)c2)S(=O)(=O)c2ccc(-c3ccccc3)cc2)cc1 [Compound 10] please. 62

Report SI: selectivity index for CB2, calculated as Ki(CB1)/Ki(CB2) ratio for CCN(CC)c1ccc(CN(Cc2cc(OC)c(OC)c(OC)c2)S(=O)(=O)c2ccc(C)cc2)cc1 [Compound 6] please. 2

Report SI: selectivity index for CB2, calculated as Ki(CB1)/Ki(CB2) ratio for CCN(CC)c1ccc(CN(Cc2cccnc2)S(=O)(=O)/C=C/c2ccccc2)cc1 [Compound 23] please. 6

Report SI: selectivity index for CB2, calculated as Ki(CB1)/Ki(CB2) ratio for CCN(CC)c1ccc(CN(Cc2cc(OC)c(OC)c(OC)c2)S(=O)(=O)c2ccc(C=O)cc2)cc1 [Compound 18] please. 9

====

So I've got Ki readings for human CB2 receptors (Homo sapiens, UniProt P34972), take a look.
Please reply with the bare figure in nM and do not write the unit itself.

# get_value(readout= Ki, system= human CB2 receptors (Homo sapiens, UniProt P34972)) for CCCCCN(Cc1ccc(N(CC)CC)cc1)S(=O)(=O)c1ccc(-c2ccccc2)cc1 3150

# get_value(readout= Ki, system= human CB2 receptors (Homo sapiens, UniProt P34972)) for CCN(CC)c1ccc(CN(Cc2cc(OC)c(OC)c(OC)c2)S(=O)(=O)c2ccccc2)cc1 453

# get_value(readout= Ki, system= human CB2 receptors (Homo sapiens, UniProt P34972)) for CCN(CC)c1ccc(CN(Cc2ccc3c(c2)OCO3)S(=O)(=O)c2ccc(-c3ccccc3)cc2)cc1 2000

# get_value(readout= Ki, system= human CB2 receptors (Homo sapiens, UniProt P34972)) for CCCCCN(Cc1ccc(N(CC)CC)cc1)C(=O)c1cccs1 362

# get_value(readout= Ki, system= human CB2 receptors (Homo sapiens, UniProt P34972)) for CCN(CC)c1ccc(CN(Cc2cc(OC)c(OC)c(OC)c2)S(=O)(=O)c2ccccc2C)cc1 157

# get_value(readout= Ki, system= human CB2 receptors (Homo sapiens, UniProt P34972)) for CCN(CC)c1ccc(CN(Cc2cc(OC)c(OC)c(OC)c2)S(=O)(=O)c2cccs2)cc1 639

# get_value(readout= Ki, system= human CB2 receptors (Homo sapiens, UniProt P34972)) for CCN(CC)c1ccc(CN(Cc2cc(OC)c(OC)c(OC)c2)S(=O)(=O)/C=C/c2ccccc2)cc1 138

Values from patent US11059778B2
